Target: human kinase Mps-1 (Homo sapiens)
Construct: N-terminally GST-tagged human full length recombinant Mps-1 kinase; GST (N); purchased Invitrogen, Karslruhe, Germany PV4071
Sequence (P33981 whole entry): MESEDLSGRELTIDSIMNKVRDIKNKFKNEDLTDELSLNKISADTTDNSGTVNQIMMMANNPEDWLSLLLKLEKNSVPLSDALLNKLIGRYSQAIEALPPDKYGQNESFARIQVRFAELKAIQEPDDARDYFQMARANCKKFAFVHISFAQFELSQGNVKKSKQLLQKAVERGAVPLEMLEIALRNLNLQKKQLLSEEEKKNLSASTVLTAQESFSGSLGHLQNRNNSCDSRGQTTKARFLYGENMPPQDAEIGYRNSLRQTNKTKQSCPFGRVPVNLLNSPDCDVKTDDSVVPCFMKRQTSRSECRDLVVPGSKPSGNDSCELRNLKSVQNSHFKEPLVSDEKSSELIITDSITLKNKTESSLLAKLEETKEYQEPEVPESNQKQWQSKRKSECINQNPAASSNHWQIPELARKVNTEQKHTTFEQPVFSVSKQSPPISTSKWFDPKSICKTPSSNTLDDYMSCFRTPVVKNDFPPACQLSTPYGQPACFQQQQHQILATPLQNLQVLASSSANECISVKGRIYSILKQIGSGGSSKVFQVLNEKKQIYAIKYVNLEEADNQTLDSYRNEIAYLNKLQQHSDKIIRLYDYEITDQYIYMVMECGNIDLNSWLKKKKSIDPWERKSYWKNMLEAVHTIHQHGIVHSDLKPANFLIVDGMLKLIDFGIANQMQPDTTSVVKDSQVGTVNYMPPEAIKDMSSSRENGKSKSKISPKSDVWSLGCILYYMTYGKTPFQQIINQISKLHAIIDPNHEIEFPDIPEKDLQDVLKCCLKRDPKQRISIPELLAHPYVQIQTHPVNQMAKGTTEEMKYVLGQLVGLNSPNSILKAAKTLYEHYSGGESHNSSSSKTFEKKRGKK
Test: Mps-1 kinase assay (TR-FRET)
Assay type: biochemical
Conditions: 10 μM ATP; read-out: Mps-1 Inhibition, IC50 (Assay with 10 μM ATP)
Endpoint: IC50

Memo: "COc1cc2c(cc1Nc1nc3ccc(-c4ccc(NC(=O)[C@H](C)c5ccc(F)cc5)cc4)cn3n1)CCS2(=O)=O" , reported IC50: < 1 nM
